Experiment: oral bioavailability of encapsulated microparticulate (100 mg) enteric coated formulation (Example 3)
Design: species or system cynomolgus monkeys
Conditions: male, cynomolgus monkey, in vivo, po, 100 mg, AUC0-∞, Mean

[
  {
    "smiles.entry": "CN(C)c1cc(NC(=O)CNC(C)(C)C)c(O)c2c1C[C@H]1C[C@H]3[C@H](N(C)C)C(O)=C(C(N)=O)C(=O)[C@@]3(O)C(O)=C1C2=O",
    "AUC(0-inf), µg·h/mL": 2.83
  }
]

----------
Assay: pharmacokinetics after single oral (gavage) and intravenous dose in 0.9% saline (Example 2)
Set-up: species or system cynomolgus monkeys
Settings: male, cynomolgus monkey, in vivo, po, 15 mg/kg, Plasma Concentrations
endpoint: concentration at 6 hr

[
  {
    "smiles.entry": "CN(C)c1cc(NC(=O)CNC(C)(C)C)c(O)c2c1C[C@H]1C[C@H]3[C@H](N(C)C)C(O)=C(C(N)=O)C(=O)[C@@]3(O)C(O)=C1C2=O",
    "endpoint": "concentration at 6 hr",
    "result": "< 100 ng/mL"
  }
]

----------
Test: pharmacokinetics after single oral (gavage) and intravenous dose in 0.9% saline (Example 2)
Parameters: species or system cynomolgus monkeys
Details: male, cynomolgus monkey, in vivo, po, 15 mg/kg, AUC0-t, Mean

[
  {
    "compound": "CN(C)c1cc(NC(=O)CNC(C)(C)C)c(O)c2c1C[C@H]1C[C@H]3[C@H](N(C)C)C(O)=C(C(N)=O)C(=O)[C@@]3(O)C(O)=C1C2=O [Tigecycline]",
    "AUC(0-t) [ng·h/mL]": 163
  }
]

----------
Test: pharmacokinetics after single oral (gavage) and intravenous dose in 0.9% saline (Example 2)
Design: species or system cynomolgus monkeys
Settings: male, cynomolgus, cynomolgus monkey, in vivo, iv, 5 mg/kg, Plasma Concentrations, Mean

[
  {
    "smiles.entry": "CN(C)c1cc(NC(=O)CNC(C)(C)C)c(O)c2c1C[C@H]1C[C@H]3[C@H](N(C)C)C(O)=C(C(N)=O)C(=O)[C@@]3(O)C(O)=C1C2=O",
    "concentration at 6 hr": "499 ng/mL"
  }
]

----------
Assay: oral bioavailability of encapsulated microparticulate (100 mg) enteric coated formulation (Example 3)
Parameters: species or system cynomolgus monkeys
Conditions: male, cynomolgus monkey, in vivo, po, 16 mg/kg, Cmax

[
  {
    "compound": "CN(C)c1cc(NC(=O)CNC(C)(C)C)c(O)c2c1C[C@H]1C[C@H]3[C@H](N(C)C)C(O)=C(C(N)=O)C(=O)[C@@]3(O)C(O)=C1C2=O [Tigecycline]",
    "Cmax (ng/mL)": 225
  }
]

----------
Assay: pharmacokinetics after single oral (gavage) and intravenous dose in 0.9% saline (Example 2)
Set-up: species or system cynomolgus monkeys
Settings: male, cynomolgus monkey, in vivo, po, 15 mg/kg, tmax
endpoint: Tmax

[
  {
    "smiles.entry": "CN(C)c1cc(NC(=O)CNC(C)(C)C)c(O)c2c1C[C@H]1C[C@H]3[C@H](N(C)C)C(O)=C(C(N)=O)C(=O)[C@@]3(O)C(O)=C1C2=O",
    "result": "1.8 h"
  }
]

----------
Assay: pharmacokinetics after single oral (gavage) and intravenous dose in 0.9% saline (Example 2)
Design: species or system cynomolgus monkeys
Conditions: male, cynomolgus, cynomolgus monkey, in vivo, po, 15 mg/kg, tmax

[
  {
    "smiles.entry": "CN(C)c1cc(NC(=O)CNC(C)(C)C)c(O)c2c1C[C@H]1C[C@H]3[C@H](N(C)C)C(O)=C(C(N)=O)C(=O)[C@@]3(O)C(O)=C1C2=O",
    "Tmax": "1 to 2 h"
  }
]

----------
Test: pharmacokinetics after single oral (gavage) and intravenous dose in 0.9% saline (Example 2)
Set-up: species or system cynomolgus monkeys
Conditions: male, cynomolgus monkey, in vivo, iv, 5 mg/kg, Plasma Concentrations
endpoint: concentration at 24 hr

[
  {
    "smiles.entry": "CN(C)c1cc(NC(=O)CNC(C)(C)C)c(O)c2c1C[C@H]1C[C@H]3[C@H](N(C)C)C(O)=C(C(N)=O)C(=O)[C@@]3(O)C(O)=C1C2=O",
    "endpoint": "concentration at 24 hr",
    "result": "155 ng/mL"
  }
]

----------
Assay: pharmacokinetics after single oral (gavage) and intravenous dose in 0.9% saline (Example 2)
Parameters: species or system cynomolgus monkeys
Settings: male, cynomolgus monkey, in vivo, po, 15 mg/kg, Plasma Concentrations, Mean

[
  {
    "compound": "CN(C)c1cc(NC(=O)CNC(C)(C)C)c(O)c2c1C[C@H]1C[C@H]3[C@H](N(C)C)C(O)=C(C(N)=O)C(=O)[C@@]3(O)C(O)=C1C2=O [Tigecycline]",
    "units.of.measure": "ng/mL",
    "concentration at 12 h": 0
  }
]

----------
Experiment: cell monolayer permeability studies
Type: in vitro ADME
Conditions: 1 mM in ethanol and buffer, pH 6 to 6.4
endpoint: Papp at 1 mM

[
  {
    "smiles.entry": "CN(C)c1cc(NC(=O)CNC(C)(C)C)c(O)c2c1C[C@H]1C[C@H]3[C@H](N(C)C)C(O)=C(C(N)=O)C(=O)[C@@]3(O)C(O)=C1C2=O",
    "result": "0.4 nm/s"
  }
]

----------
Experiment: pharmacokinetics after single oral (gavage) and intravenous dose in 0.9% saline (Example 2)
Parameters: species or system cynomolgus monkeys
Details: male, cynomolgus, cynomolgus monkey, in vivo, iv, 5 mg/kg, Plasma Concentrations, Mean

[
  {
    "smiles.entry": "CN(C)c1cc(NC(=O)CNC(C)(C)C)c(O)c2c1C[C@H]1C[C@H]3[C@H](N(C)C)C(O)=C(C(N)=O)C(=O)[C@@]3(O)C(O)=C1C2=O",
    "units.of.measure": "ng/mL",
    "concentration at 2 hr": 1090
  }
]

----------
Test: pharmacokinetics after single oral (gavage) and intravenous dose in 0.9% saline (Example 2)
Set-up: species or system cynomolgus monkeys
Settings: male, cynomolgus monkey, in vivo, po, 15 mg/kg, Plasma Concentrations, Mean
endpoint: concentration at 0.5 h (ng/mL)

[
  {
    "smiles.entry": "CN(C)c1cc(NC(=O)CNC(C)(C)C)c(O)c2c1C[C@H]1C[C@H]3[C@H](N(C)C)C(O)=C(C(N)=O)C(=O)[C@@]3(O)C(O)=C1C2=O",
    "units.of.measure": "ng/mL",
    "result.number": 55.5
  }
]

----------
Assay: oral bioavailability of encapsulated microparticulate (100 mg) enteric coated formulation (Example 3)
Set-up: species or system cynomolgus monkeys
Settings: cynomolgus monkey, in vivo; fasted male cynomolgus monkeys, single oral dose 100 mg encapsulated microparticulate capsule, 3 hr, individual animals; read-out: Plasma Concentrations
endpoint: concentration at 3 hr

[
  {
    "smiles.entry": "CN(C)c1cc(NC(=O)CNC(C)(C)C)c(O)c2c1C[C@H]1C[C@H]3[C@H](N(C)C)C(O)=C(C(N)=O)C(=O)[C@@]3(O)C(O)=C1C2=O",
    "result": "174 ng/mL"
  }
]

----------
Assay: pharmacokinetics after single oral (gavage) and intravenous dose in 0.9% saline (Example 2)
Design: species or system cynomolgus monkeys
Conditions: male, cynomolgus monkey, in vivo, po, 15 mg/kg, tmax, Mean

[
  {
    "molecule": "CN(C)c1cc(NC(=O)CNC(C)(C)C)c(O)c2c1C[C@H]1C[C@H]3[C@H](N(C)C)C(O)=C(C(N)=O)C(=O)[C@@]3(O)C(O)=C1C2=O [Tigecycline]",
    "units.of.measure": "h",
    "Tmax": 1.8
  }
]

----------
Experiment: pharmacokinetics after single oral (gavage) and intravenous dose in 0.9% saline (Example 2)
Set-up: species or system cynomolgus monkeys
Settings: male, cynomolgus, cynomolgus monkey, in vivo, iv, 5 mg/kg, Cmax, Mean

[
  {
    "smiles.entry": "CN(C)c1cc(NC(=O)CNC(C)(C)C)c(O)c2c1C[C@H]1C[C@H]3[C@H](N(C)C)C(O)=C(C(N)=O)C(=O)[C@@]3(O)C(O)=C1C2=O",
    "Cmax": "15100 ng/mL"
  }
]

----------
Experiment: pharmacokinetics after single oral (gavage) and intravenous dose in 0.9% saline (Example 2)
Parameters: species or system cynomolgus monkeys
Settings: male, cynomolgus, cynomolgus monkey, in vivo, iv, 5 mg/kg, Mean
endpoint: AUC(0-t) (ng·h/mL)

[
  {
    "smiles.entry": "CN(C)c1cc(NC(=O)CNC(C)(C)C)c(O)c2c1C[C@H]1C[C@H]3[C@H](N(C)C)C(O)=C(C(N)=O)C(=O)[C@@]3(O)C(O)=C1C2=O",
    "endpoint": "AUC(0-t)",
    "units.of.measure": "ng·h/mL",
    "result.number": 18300
  }
]

----------
Assay: pharmacokinetics after single oral (gavage) and intravenous dose in 0.9% saline (Example 2)
Parameters: species or system cynomolgus monkeys
Conditions: male, cynomolgus monkey, in vivo, 15 mg/kg, Cmax

[
  {
    "smiles.entry": "CN(C)c1cc(NC(=O)CNC(C)(C)C)c(O)c2c1C[C@H]1C[C@H]3[C@H](N(C)C)C(O)=C(C(N)=O)C(=O)[C@@]3(O)C(O)=C1C2=O",
    "Cmax [ng/mL]": 15100
  }
]
